# System: Escherichia coli TOP10
# experimentSummary: shrunken log2 fold change of peptide-encoding DNA abundance (4.5 h post-induction vs induction); higher = less antimicrobial activity (less host growth inhibition)
# testConditions: time post-induction: 4.5 h; library: site-saturation at positions 5, 18, 19, 20
measuredProperty: shrunken log2 fold change

RRIRARPPRLPRPRPRPAKRPRP
0.47
RRIRARPPRLPRPRPRPIWFPRP
0.225
RRIRERPPRLPRPRPRPVIFPRP
-0.392
RRIRFRPPRLPRPRPRPSLHPRP
-0.558
RRIRMRPPRLPRPRPRPALMPRP
0.114
RRIRQRPPRLPRPRPRPFSSPRP
-0.0951
RRIRCRPPRLPRPRPRPSRPPRP
0.245
RRIRMRPPRLPRPRPRPTFQPRP
0.428
RRIRDRPPRLPRPRPRPKHPPRP
0.0483
RRIRKRPPRLPRPRPRPVNPPRP
-0.0659
RRIRRRPPRLPRPRPRPWDPPRP
-0.119
RRIRERPPRLPRPRPRPCPGPRP
-0.451
RRIRVRPPRLPRPRPRPDWTPRP
0.00219
RRIRKRPPRLPRPRPRPGVTPRP
0.409
RRIRQRPPRLPRPRPRPEHTPRP
-0.0628
RRIRGRPPRLPRPRPRPKFHPRP
0.199
RRIRSRPPRLPRPRPRPRLPPRP
0.315
RRIRQRPPRLPRPRPRPCWKPRP
0.111
RRIRFRPPRLPRPRPRPCPDPRP
-0.45
RRIRVRPPRLPRPRPRPQVFPRP
-0.0729
RRIRIRPPRLPRPRPRPCGHPRP
0.00489
RRIRFRPPRLPRPRPRPAYWPRP
0.21
RRIRDRPPRLPRPRPRPHPNPRP
-0.662
RRIRMRPPRLPRPRPRPPTEPRP
0.413
RRIRTRPPRLPRPRPRPVLAPRP
0.479
RRIRCRPPRLPRPRPRPCTYPRP
-1.19
RRIRGRPPRLPRPRPRPAHIPRP
0.0667
RRIRDRPPRLPRPRPRPFSLPRP
-0.176
RRIRLRPPRLPRPRPRPRQMPRP
0.208
RRIRARPPRLPRPRPRPTMIPRP
0.00226
RRIRKRPPRLPRPRPRPSCMPRP
-0.0405
RRIRKRPPRLPRPRPRPLGGPRP
0.288

---

// values below are reported shrunken log2 fold change
# System: Escherichia coli TOP10
# experimentSummary: shrunken log2 fold change of peptide-encoding DNA abundance (4.5 h post-induction vs induction); higher = less antimicrobial activity (less host growth inhibition)
# testConditions: time post-induction: 4.5 h; library: site-saturation at positions 5, 18, 19, 20
measuredProperty: shrunken log2 fold change

RRIRHRPPRLPRPRPRPTRGPRP
0.0497
RRIRNRPPRLPRPRPRPYLAPRP
-0.327
RRIRNRPPRLPRPRPRPWYNPRP
-0.00192
RRIRFRPPRLPRPRPRPNDEPRP
-0.648
RRIRMRPPRLPRPRPRPEDPPRP
1.02
RRIRERPPRLPRPRPRPQCPPRP
-0.207
RRIRNRPPRLPRPRPRPCISPRP
-0.802
RRIRNRPPRLPRPRPRPNRPPRP
-0.0547

---

// values below are reported shrunken log2 fold change
# Tested on: Escherichia coli TOP10
# experimentSummary: shrunken log2 fold change of peptide-encoding DNA abundance (4.5 h post-induction vs induction); higher = less antimicrobial activity (less host growth inhibition)
# testConditions: time post-induction: 4.5 h; library: site-saturation at positions 5, 18, 19, 20
measuredProperty: shrunken log2 fold change

RRIRHRPPRLPRPRPRPWYCPRP
-0.0324
RRIRQRPPRLPRPRPRPCWCPRP
-0.0854
RRIRGRPPRLPRPRPRPMRNPRP
1.09
RRIRWRPPRLPRPRPRPHDTPRP
0.0511
RRIRMRPPRLPRPRPRPANNPRP
-0.264
RRIRFRPPRLPRPRPRPPLCPRP
0.282
RRIRSRPPRLPRPRPRPMSTPRP
-0.13
RRIRTRPPRLPRPRPRPTQPPRP
0.176
RRIRTRPPRLPRPRPRPCQVPRP
-0.304
RRIRWRPPRLPRPRPRPDQCPRP
0.25
RRIRQRPPRLPRPRPRPGVGPRP
0.18
RRIRFRPPRLPRPRPRPPVRPRP
0.443
RRIRKRPPRLPRPRPRPVFFPRP
0.341
RRIRIRPPRLPRPRPRPHMQPRP
-0.169
RRIRQRPPRLPRPRPRPPTAPRP
0.504
RRIRLRPPRLPRPRPRPDWGPRP
0.222
RRIRHRPPRLPRPRPRPFFFPRP
0.123
RRIRGRPPRLPRPRPRPFYQPRP
0.0158
RRIRSRPPRLPRPRPRPYSQPRP
-0.0604
RRIRHRPPRLPRPRPRPVYLPRP
-0.406
RRIRFRPPRLPRPRPRPQFHPRP
-0.839
RRIRSRPPRLPRPRPRPASPPRP
-0.0809
RRIRWRPPRLPRPRPRPHWYPRP
2.17
RRIRSRPPRLPRPRPRPHRPPRP
0.0831
RRIRSRPPRLPRPRPRPLMPPRP
0.121
RRIRSRPPRLPRPRPRPPPDPRP
0.848
RRIRDRPPRLPRPRPRPQDEPRP
-0.166
RRIRMRPPRLPRPRPRPIPGPRP
0.105
RRIRVRPPRLPRPRPRPDRLPRP
0.314
RRIRHRPPRLPRPRPRPECDPRP
-0.0404
RRIRERPPRLPRPRPRPYYEPRP
-0.224
RRIRWRPPRLPRPRPRPPQKPRP
0.413
RRIRPRPPRLPRPRPRPGWYPRP
0.075
RRIRMRPPRLPRPRPRPRAYPRP
0.426
RRIRERPPRLPRPRPRPDYVPRP
-0.00136
RRIRWRPPRLPRPRPRPIGWPRP
0.534
RRIRCRPPRLPRPRPRPYYMPRP
-0.904
RRIRTRPPRLPRPRPRPDKNPRP
-0.143
RRIRCRPPRLPRPRPRPVEMPRP
0.0203
RRIRHRPPRLPRPRPRPPTIPRP
0.215
RRIRFRPPRLPRPRPRPQAPPRP
0.0778
RRIRKRPPRLPRPRPRPAFLPRP
0.245
RRIRYRPPRLPRPRPRPAPAPRP
0.0272
RRIRPRPPRLPRPRPRPYMRPRP
-0.000384
RRIRRRPPRLPRPRPRPAGWPRP
0.593
RRIRVRPPRLPRPRPRPQKWPRP
0.202
RRIRCRPPRLPRPRPRPQIPPRP
-0.126
RRIRPRPPRLPRPRPRPQMRPRP
0.806
RRIRARPPRLPRPRPRPYFMPRP
-0.62
RRIRGRPPRLPRPRPRPNFQPRP
0.122
RRIRRRPPRLPRPRPRPCGLPRP
0.15
RRIRWRPPRLPRPRPRPAWQPRP
0.427
RRIRRRPPRLPRPRPRPDQPPRP
0.0262
RRIRPRPPRLPRPRPRPFNAPRP
-0.287
RRIRMRPPRLPRPRPRPAMRPRP
1.14
RRIRTRPPRLPRPRPRPWSEPRP
-0.364
RRIRHRPPRLPRPRPRPHRCPRP
0.0171
RRIRSRPPRLPRPRPRPTEEPRP
0.234
RRIRDRPPRLPRPRPRPGWKPRP
0.136
RRIRTRPPRLPRPRPRPWFHPRP
-0.362
RRIRQRPPRLPRPRPRPWMEPRP
-3.98e-05
RRIRNRPPRLPRPRPRPHPMPRP
0.0281
RRIRARPPRLPRPRPRPEKVPRP
0.131

---

// values below are reported shrunken log2 fold change
# Tested on: Escherichia coli TOP10;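 further: peptides expressed intracellularly from a pBAD plasmid library in pooled LB shake-flask culture, induced with 0.3% L-arabinose, DNA abundance read by NGS, three biological replicates, DESeq2 with apeglm shrinkage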
# experimentSummary: shrunken log2 fold change of peptide-encoding DNA abundance (4.5 h post-induction vs induction); higher = less antimicrobial activity (less host growth inhibition)
# testConditions: time post-induction: 4.5 h; library: site-saturation at positions 5, 18, 19, 20
measuredProperty: shrunken log2 fold change

RRIRFRPPRLPRPRPRPCSPPRP
-0.674
RRIRNRPPRLPRPRPRPNMVPRP
-0.385
RRIRQRPPRLPRPRPRPLGLPRP
0.103
RRIRFRPPRLPRPRPRPVISPRP
-0.674
RRIRNRPPRLPRPRPRPQYMPRP
-1.16
RRIRKRPPRLPRPRPRPNNTPRP
-0.243
RRIRGRPPRLPRPRPRPDFVPRP
0.0455
RRIRIRPPRLPRPRPRPTDNPRP
-0.964
RRIRDRPPRLPRPRPRPEIHPRP
0.597
RRIRFRPPRLPRPRPRPRVQPRP
0.263
RRIRWRPPRLPRPRPRPFPSPRP
-0.1
RRIRTRPPRLPRPRPRPFRIPRP
-0.0114
RRIRCRPPRLPRPRPRPVRAPRP
0.486
RRIRERPPRLPRPRPRPIHTPRP
0.0013
RRIRQRPPRLPRPRPRPYLKPRP
0.00123
RRIRGRPPRLPRPRPRPHTGPRP
-0.0945
RRIRSRPPRLPRPRPRPFDQPRP
-0.256
RRIRDRPPRLPRPRPRPYSTPRP
-0.0663
RRIRERPPRLPRPRPRPLEMPRP
-0.216
RRIRWRPPRLPRPRPRPPITPRP
-0.173
RRIRQRPPRLPRPRPRPYVVPRP
-0.102
RRIRMRPPRLPRPRPRPVCDPRP
0.367
RRIRCRPPRLPRPRPRPQNMPRP
-0.78
RRIRIRPPRLPRPRPRPMRTPRP
0.0509
RRIRCRPPRLPRPRPRPMWYPRP
-0.414
RRIRARPPRLPRPRPRPVEAPRP
0.365
RRIRPRPPRLPRPRPRPIDWPRP
0.272
RRIRMRPPRLPRPRPRPIAWPRP
0.201
RRIRCRPPRLPRPRPRPCMIPRP
-0.23
RRIRKRPPRLPRPRPRPQCDPRP
0.279
RRIRMRPPRLPRPRPRPFERPRP
0.122
RRIRWRPPRLPRPRPRPPRWPRP
0.591
RRIRHRPPRLPRPRPRPLMCPRP
0.0994
RRIRPRPPRLPRPRPRPSPLPRP
0.0443
RRIRSRPPRLPRPRPRPDISPRP
-0.0675
RRIRCRPPRLPRPRPRPLLQPRP
0.167
RRIRSRPPRLPRPRPRPIGQPRP
0.0342
RRIRYRPPRLPRPRPRPHWQPRP
-0.0696
RRIRRRPPRLPRPRPRPKPKPRP
0.273
RRIRKRPPRLPRPRPRPATTPRP
0.407
RRIRRRPPRLPRPRPRPHRPPRP
0.203
RRIRERPPRLPRPRPRPHLNPRP
-0.434
RRIRFRPPRLPRPRPRPTCGPRP
0.00559
RRIRGRPPRLPRPRPRPEMLPRP
1.71
RRIRFRPPRLPRPRPRPIRIPRP
-0.223
RRIRPRPPRLPRPRPRPPDHPRP
0.182
RRIRKRPPRLPRPRPRPWDSPRP
0.0485
RRIRSRPPRLPRPRPRPHCLPRP
-0.0826
RRIRYRPPRLPRPRPRPMRQPRP
-0.0148
RRIRYRPPRLPRPRPRPVRKPRP
0.195
RRIRSRPPRLPRPRPRPFVKPRP
-0.222
RRIRPRPPRLPRPRPRPIEDPRP
-0.0617
RRIRTRPPRLPRPRPRPWYRPRP
-0.23
RRIRLRPPRLPRPRPRPIVEPRP
0.0406
RRIRARPPRLPRPRPRPHEKPRP
0.358
RRIRFRPPRLPRPRPRPYIEPRP
-0.504
RRIRQRPPRLPRPRPRPEVAPRP
0.00859
RRIRNRPPRLPRPRPRPNPPPRP
0.143
RRIRVRPPRLPRPRPRPAPYPRP
-0.00665
RRIRYRPPRLPRPRPRPRKRPRP
0.266
RRIRRRPPRLPRPRPRPAEVPRP
0.219
RRIRGRPPRLPRPRPRPMPMPRP
0.352
RRIRMRPPRLPRPRPRPAQLPRP
0.101
